Biological target: MAO-B (Homo sapiens, UniProt P27338)
Sequence (P27338 whole entry): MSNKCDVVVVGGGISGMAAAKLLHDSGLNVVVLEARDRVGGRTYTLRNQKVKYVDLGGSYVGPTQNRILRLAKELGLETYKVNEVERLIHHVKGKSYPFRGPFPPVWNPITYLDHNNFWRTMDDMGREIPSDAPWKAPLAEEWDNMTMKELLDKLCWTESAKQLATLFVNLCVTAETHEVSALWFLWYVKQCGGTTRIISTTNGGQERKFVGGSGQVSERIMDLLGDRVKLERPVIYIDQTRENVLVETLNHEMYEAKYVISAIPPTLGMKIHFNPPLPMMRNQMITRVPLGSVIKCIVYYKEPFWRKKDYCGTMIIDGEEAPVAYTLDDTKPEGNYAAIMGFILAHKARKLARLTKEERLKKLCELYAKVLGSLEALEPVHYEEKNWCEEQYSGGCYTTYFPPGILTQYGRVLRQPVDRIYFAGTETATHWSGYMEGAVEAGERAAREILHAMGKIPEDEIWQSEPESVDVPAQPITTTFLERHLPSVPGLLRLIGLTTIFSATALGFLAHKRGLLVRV
Assay: In vitro MAO-B inhibition assay (fluorometric)
Assay type: biochemical
Settings: 10^–8 M
Answer 0 if inhibition at 0.01 µM is under 30%, and 1 if it is 30% or more.

Example cases with answers are listed next.
CCN(CC)CCN(CC)CC(=O)Nc1ccc(/C=C2\Cc3cc(OC)ccc3C2=O)cc1	0
COc1cc2c(cc1OC)C(=O)/C(=C/c1ccc(NC(=O)CN(C)CCCN(C)C)cc1)C2	1
CCCN(C)CC(=O)Nc1ccc(/C=C2\Cc3cc(OC)c(OC)cc3C2=O)cc1	1
CCN(CC)CCN(CC)CC(=O)Nc1ccc(/C=C2\Cc3ccc(OC)cc3C2=O)cc1	1

Next item in the queue.
q: Check if inhibition at 0.01 µM >= 30% (inclusive). Item: "C#CCN(C)CC(=O)Nc1ccc(/C=C2\Cc3ccc(OC)cc3C2=O)cc1"
a: 1
